assayTarget: Cytochrome P450 3A4 (Homo sapiens)
assayRemarks: Cytochrome panel assay with activity outcomes
conditionSet: recombinant CYP, pro-luciferin dealkylation, luminescence, p450-cyp3a4; series mostly up to 57.1 µM
Method: The P450 gene superfamily is involved in the metabolism and clearance of xenobiotics. This assay used various human CYP P450 isozymes to measure the dealkylation of various pro-luciferin substrates to luciferin. The luciferin is then measured by luminescence after the addition of a luciferase detection reagent. […] Inhibitors and some substrates limit the production of luciferin, and decrease measured luminescence. […] 8, Detection, 1 sec, ViewLux luminescent read […]
Screen size: about 16,000 compounds; about 5,100 (32%) were called active. Inconclusive results (about 25%) are left out. The call rests on the fitted dose curve; in most records, active means well fitted curve in the direction sought with a large enough effect; inconclusive means small, poorly fitted or top-dose-only effect, or effect the other way; inactive means no such curve, though single readings can be large or run the other way. Some of the results follow.
Form entry, call: pick from active, inactive

Previously resolved entries follow.
INSERT INTO measurements (molecule, classification) VALUES
  ('COc1ccccc1CNc1ncnc2ccc(-c3ccc(C(=O)N(C)C)cc3)cc12', 'active'),
  ('CC1CSc2nc3sc4c(c3c(=O)n21)CCCC4 (stereo unspecified)', 'active'),
  ('COc1ccc(CNc2ncnc3ccc(-c4ccc(C(=O)N(C)C)cc4)cc23)c(OC)c1', 'active');

Asked: Which outcome did this test record for the molecule "COc1ccc2sc3ccccc3c(=O)c2c1OC" ?
Given back: active

Asked: Can you look up the reported call for "CC(C)(C)c1ccccc1OCCN1CCCC1" for me?
Given back: inactive

Asked: What is the recorded call for this molecule in the test? "Cc1sc2c(c1C)c(=O)n(-c1ccccc1)c1nnc(C)n21"
Given back: inactive

---

assayTarget: Cytochrome P450 3A4 (Homo sapiens) (UniProt P08684)
Sequence (P08684 whole entry, looked up): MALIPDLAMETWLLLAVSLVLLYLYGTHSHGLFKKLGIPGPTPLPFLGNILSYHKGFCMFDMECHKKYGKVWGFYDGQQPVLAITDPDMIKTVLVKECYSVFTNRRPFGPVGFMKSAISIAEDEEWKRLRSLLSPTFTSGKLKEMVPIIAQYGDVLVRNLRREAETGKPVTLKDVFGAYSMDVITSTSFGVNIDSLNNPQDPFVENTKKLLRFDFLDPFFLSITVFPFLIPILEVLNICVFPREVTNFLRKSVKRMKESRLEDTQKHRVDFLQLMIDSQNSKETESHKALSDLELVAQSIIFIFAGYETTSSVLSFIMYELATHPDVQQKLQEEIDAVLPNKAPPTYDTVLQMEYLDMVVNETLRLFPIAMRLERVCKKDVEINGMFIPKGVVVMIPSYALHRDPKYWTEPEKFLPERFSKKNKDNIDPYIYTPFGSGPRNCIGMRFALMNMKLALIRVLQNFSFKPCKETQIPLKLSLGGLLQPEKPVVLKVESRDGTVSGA
assayRemarks: Cytochrome panel assay with activity outcomes
conditionSet: recombinant CYP, pro-luciferin dealkylation, luminescence, p450-cyp3a4; series mostly up to 57.1 µM
The whole screen tested about 16,000 compounds, of which about 5,100 (32%) were called active. Not shown: some 25% with an inconclusive outcome. The call rests on the fitted dose curve; in most records, active means well fitted curve in the direction sought with a large enough effect; inconclusive means small, poorly fitted or top-dose-only effect, or effect the other way; inactive means no such curve, though single readings can be large or run the other way. This is one part of the list.
Respond using exactly one of the listed classes: Yes for active, No for inactive

Asked: // outcome(item) with item = "Cc1ccc(-n2c(-c3cc(C)n(C)n3)n[nH]c2=S)cc1"
Given back: Yes

Asked: Kindly provide the recorded test outcome for the following compound: "CCNc1ncc2nc(-c3ccc(OC)cc3)c(=O)n(Cc3ccc(F)cc3)c2n1"
Given back: No

Asked: Record request — test call for "CCn1nnnc1SCC(=O)c1ccc2c(c1)OCCO2"
Given back: No

---

assayTarget: Cytochrome P450 3A4 (Homo sapiens) (UniProt P08684)
assayRemarks: Cytochrome panel assay with activity outcomes
conditionSet: recombinant CYP, pro-luciferin dealkylation, luminescence, p450-cyp3a4; series mostly up to 57.1 µM
Out of some 16,000 compounds screened, about 5,100 (32%) were called active. Roughly 25% stayed inconclusive and do not appear here. The call rests on the fitted dose curve; in most records, active means well fitted curve in the direction sought with a large enough effect; inconclusive means small, poorly fitted or top-dose-only effect, or effect the other way; inactive means no such curve, though single readings can be large or run the other way. The list shows a part of the results.
Give one outcome, nothing more. List: yes = active, no = inactive

INSERT INTO results (compound, assaytarget, classification) VALUES
  ('COc1ccccc1NC(=O)c1ccc(-n2cccn2)nc1', 'Cytochrome P450 3A4 (Homo sapiens) (UniProt P08684)', 'no'),
  ('CCC(=O)N1CCn2c1nc1ccccc12', 'Cytochrome P450 3A4 (Homo sapiens) (UniProt P08684)', 'no'),
  ('COc1cccc(Cn2c(=O)c(-c3cc(F)cc(F)c3)nc3cnc(N4CCNCC4)nc32)c1', 'Cytochrome P450 3A4 (Homo sapiens) (UniProt P08684)', 'yes'),
  ('OC[C@@H](O)COc1cccc2ccccc12', 'Cytochrome P450 3A4 (Homo sapiens) (UniProt P08684)', 'no'),
  ('CN(C)C(=O)c1ccc(-c2nc(N(C)Cc3ccco3)c3ccccc3n2)cc1', 'Cytochrome P450 3A4 (Homo sapiens) (UniProt P08684)', 'no');

Asked: Entry "N#CCSc1nc2ccc(N3CCCCC3)cc2c(=O)n1Cc1ccccc1" : call = ?
Given back: yes

Asked: # fetch the recorded call for "Cc1nonc1NCn1nnc2ccccc21" here
Given back: no

Asked: Each compound tested received a call. Report the one for "COCCn1c(=O)c(-c2cc(F)cc(F)c2)nc2cnc(N3CCN(C)CC3)nc21" .
Given back: no

Asked: Give the logged outcome of this assay for the following compound: "CCOc1nc(NC(C)C)nc(NC(C)C)n1"
Given back: no

Asked: Lab log entry: Cc1ccc2[nH]c3c(c2c1)CN(C(=O)CN1c2ccc(F)cc2CCC1C)CC3 (stereo not given) — outcome as called in the assay?
Given back: yes

Asked: Could you please tell me the result logged for "NC(=NCc1ccccc1)NC(=O)c1nc(Cl)c(N)nc1N" in this assay?
Given back: no

Asked: Give the logged outcome of this assay for the following compound: "COc1ccc(-c2nc3cnc(N4CCNCC4)nc3n(Cc3cccc(OC)c3)c2=O)cc1"
Given back: yes
